# credit: patent US20140005165A1

target.under.test: human CCR2 (Homo sapiens, UniProt P41597)
Construct: expressed in transfected cells; host or cells: Ba/F3 cells (membrane preparation)
Sequence (P41597 whole entry): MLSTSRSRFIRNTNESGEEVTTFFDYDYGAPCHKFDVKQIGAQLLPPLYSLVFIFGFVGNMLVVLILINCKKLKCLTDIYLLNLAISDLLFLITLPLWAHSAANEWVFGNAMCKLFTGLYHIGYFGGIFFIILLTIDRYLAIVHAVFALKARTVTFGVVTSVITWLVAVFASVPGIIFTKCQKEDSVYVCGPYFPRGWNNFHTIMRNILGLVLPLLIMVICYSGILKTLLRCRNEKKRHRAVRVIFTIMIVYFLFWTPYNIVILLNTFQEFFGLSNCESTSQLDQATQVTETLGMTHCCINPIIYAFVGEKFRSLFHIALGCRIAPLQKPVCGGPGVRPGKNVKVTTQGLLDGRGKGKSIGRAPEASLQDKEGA
measurement.protocol: CCR2 Membrane Binding Assay (SPA radio-ligand binding, 125I-rhMCP-1)
measurement.setup: membranes from Ba/F3 cells transfected with human CCR2; 0.03 nM 125I-rhMCP-1; class symbols
Protocol: The radio-ligand binding assay was done using scintillation proximity assay (SPA) technology. […] Binding competition was measured using a 1450 Microbeta Trilux counter (Wallac, Gaithersburg, Md.). Binding constants (IC50 and slope) were calculated using GraphPad Prism software (GraphPad Software, Inc., La Jolla Calif.).
parameter: IC50

// known answers, use as guide
O=C(CNC(=O)[C@H]1[C@@H]2CN(C3CCCCCC3)C[C@@H]21)Nc1cccc(C(F)(F)F)c1 [Compound 33]	201 to 700 nM
O=C(NCc1cccc(C(F)(F)F)c1)[C@H]1[C@@H]2CN([C@H]3CC[C@@H](c4ccccc4)CC3)C[C@@H]21 [Compound 42]	51 to 200 nM
CCC(CC)N1C[C@@H]2[C@H](C1)[C@H]2C(=O)NCC(=O)Nc1cccc(C(F)(F)F)c1 [Compound 13]	51 to 200 nM

Each of the following entries comes with a recorded value; kindly state IC50 for each.
1. O=C(NCCc1cc(F)cc(C(F)(F)F)c1)[C@H]1[C@@H]2CN([C@H]3CC[C@@H](c4ccccc4)CC3)C[C@@H]21 [Compound 67]
2. CCC(C)N1C[C@@H]2[C@H](C1)[C@H]2C(=O)NCC(=O)Nc1cccc(C(F)(F)F)c1 (stereo partly shown) [Compound 9]
3. CC1CCC(N2C[C@@H]3[C@H](C2)[C@H]3C(=O)NCC(=O)Nc2cccc(C(F)(F)F)c2)CC1 (stereo partly shown) [Compound 30]

Return:
["51 to 200 nM", "51 to 200 nM", "51 to 200 nM"]

====

target.under.test: human CCR2 (Homo sapiens, UniProt P41597)
Construct: expressed in transfected cells; host or cells: Ba/F3 cells (membrane preparation)
measurement.protocol: CCR2 Membrane Binding Assay (SPA radio-ligand binding, 125I-rhMCP-1)
measurement.setup: membranes from Ba/F3 cells transfected with human CCR2; 0.03 nM 125I-rhMCP-1; class symbols
Could you please report measured IC50 for the items listed next?

Each of the following entries comes with a recorded value; kindly state IC50 for each.
1. CC(C)N1C[C@@H]2[C@H](C1)[C@H]2C(=O)NCC(=O)Nc1cccc(C(F)(F)F)c1
2. N#Cc1ccc([C@H]2CC[C@@H](N3C[C@@H]4[C@H](C3)[C@H]4C(=O)NCC(=O)Nc3cccc(C(F)(F)F)c3)CC2)cc1
3. O=C(CNC(=O)C1C2CN(C3CCOCC3)CC21)Nc1cccc(C(F)(F)F)c1 (stereo not shown)

Return:
1. 51 to 200 nM
2. < 50 nM
3. 51 to 200 nM

Enquiry: What value of IC50 on human CCR2 (Homo sapiens, UniProt P41597) does O=C(NCCc1cccc(C(F)(F)F)c1)[C@H]1[C@@H]2CN([C@H]3CC[C@@H](c4ccccc4)CC3)C[C@@H]21 have?
Return: < 50 nM

====

target.under.test: human CCR2 (Homo sapiens, UniProt P41597)
Construct: expressed in transfected cells; host or cells: Ba/F3 cells (membrane preparation)
measurement.protocol: CCR2 Membrane Binding Assay (SPA radio-ligand binding, 125I-rhMCP-1)
measurement.setup: membranes from Ba/F3 cells transfected with human CCR2; 0.03 nM 125I-rhMCP-1; 4 h room temperature
Could you please report measured pIC50 for the items listed next?
Numbers only, as −log10 of the molar value.

COc1ccc(C2(O)CCC(N3C[C@@H]4[C@H](C3)[C@H]4C(=O)NCC(=O)Nc3cccc(C(F)(F)F)c3)CC2)cn1 (stereo partly drawn) [Compound 147]	8.35
COc1ccc([C@H]2CC[C@@H](N3C[C@@H]4[C@H](C3)[C@H]4C(=O)NCC(=O)Nc3cccc(C(F)(F)F)c3)CC2)cn1 [Compound 132]	8.47

Please look at the following compound next.
Enquiry: pIC50 lookup needed for O=C(CNC(=O)[C@H]1[C@@H]2CN([C@H]3CC[C@@H](NC(=O)OCc4ccccc4)CC3)C[C@@H]21)Nc1cccc(C(F)(F)F)c1 [Compound 154] , thanks.
Return: 8.08

====

target.under.test: human CCR2 (Homo sapiens, UniProt P41597)
Construct: expressed in transfected cells; host or cells: Ba/F3 cells (membrane preparation)
measurement.protocol: CCR2 Membrane Binding Assay (SPA radio-ligand binding, 125I-rhMCP-1)
measurement.setup: membranes from Ba/F3 cells transfected with human CCR2; 0.03 nM 125I-rhMCP-1; class symbols
parameter: IC50

// known answers, use as guide
CC(C)N1C[C@@H]2C(C(=O)NCCc3cccc(C(F)(F)F)c3)[C@@H]2C1 (stereo partly shown)	201 to 700 nM
N#Cc1ccc(C2CCN(C(=O)[C@H]3[C@@H]4CN([C@H]5CC[C@@H](c6ccccc6)CC5)C[C@@H]43)C2)cc1 (stereo partly shown)	201 to 700 nM

Each of the following entries comes with a recorded value; kindly state IC50 for each.
1. O=C(CNC(=O)[C@H]1[C@@H]2CN([C@H]3CC[C@@H](c4cncnc4)CC3)C[C@@H]21)Nc1cccc(C(F)(F)F)c1
2. O=C(CNC(=O)[C@H]1[C@@H]2CN([C@H]3CC[C@@H](Nc4ccc(F)c(F)c4)CC3)C[C@@H]21)Nc1cccc(C(F)(F)F)c1
3. COCC(C)N1C[C@@H]2[C@H](C1)[C@H]2C(=O)NCC(=O)Nc1cccc(C(F)(F)F)c1 (stereo partly shown)
4. O=C([C@H]1[C@@H]2CN([C@H]3CC[C@@H](c4ccccc4)CC3)C[C@@H]21)N1CCc2ncc(C(F)(F)F)cc2C1
5. O=C(NCCc1cc(C(F)(F)F)cc(C(F)(F)F)c1)[C@H]1[C@@H]2CN([C@H]3CC[C@@H](c4ccccc4)CC3)C[C@@H]21
6. O=C(CNC(=O)[C@H]1[C@@H]2CN([C@H]3CC[C@H](c4ccc(O)cc4)CC3)C[C@@H]21)Nc1cccc(C(F)(F)F)c1
7. O=C(CNC(=O)[C@H]1[C@@H]2CN(C3CC[C@H](c4ccccc4)C3)C[C@@H]21)Nc1cccc(C(F)(F)F)c1 (stereo partly shown)
8. CC1CCCC(N2C[C@@H]3[C@H](C2)[C@H]3C(=O)NCC(=O)Nc2cccc(C(F)(F)F)c2)C1 (stereo partly shown)

Return:
1: < 50 nM; 2: < 50 nM; 3: 201 to 700 nM; 4: 201 to 700 nM; 5: 201 to 700 nM; 6: < 50 nM; 7: 51 to 200 nM; 8: 201 to 700 nM

====

target.under.test: human CCR2 (Homo sapiens)
Construct: expressed in transfected cells; host or cells: Ba/F3 cells (membrane preparation)
measurement.protocol: CCR2 Membrane Binding Assay (SPA radio-ligand binding, 125I-rhMCP-1)
measurement.setup: membranes from Ba/F3 cells transfected with human CCR2; 0.03 nM 125I-rhMCP-1; 4 h room temperature
Could you please report measured IC50 for the items listed next?
One number for each entry, in nM.

// known answers, use as guide
Cn1cc([C@H]2CC[C@@H](N3C[C@@H]4[C@H](C3)[C@H]4C(=O)NCC(=O)Nc3cccc(C(F)(F)F)c3)CC2)cn1	13.6
O=C(CNC(=O)[C@H]1[C@@H]2CN(C3CCC(c4ccccc4)CC3)C[C@@H]21)Nc1cccc(C(F)(F)F)c1 (some centres unmarked)	3.5
O=C(CNC(=O)[C@H]1[C@@H]2CN([C@H]3CC[C@@H](c4ccccn4)CC3)C[C@@H]21)Nc1cccc(C(F)(F)F)c1	1.8

Each of the following entries comes with a recorded value; kindly state IC50 for each.
1. O=C(CNC(=O)[C@H]1[C@@H]2CN([C@H]3CC[C@@H](c4cccnc4)CC3)C[C@@H]21)Nc1cccc(C(F)(F)F)c1
2. O=C(CNC(=O)[C@H]1[C@@H]2CN([C@H]3CC[C@@H](c4ccc5c(c4)OCO5)CC3)C[C@@H]21)Nc1cccc(C(F)(F)F)c1
3. O=C(CNC(=O)[C@H]1[C@@H]2CN([C@H]3CC[C@@H](c4ccc(O)cc4)CC3)C[C@@H]21)Nc1cccc(C(F)(F)F)c1
4. O=C(CNC(=O)[C@H]1[C@@H]2CN(C3CCC(O)(c4ccc5c(c4)OCO5)CC3)C[C@@H]21)Nc1cccc(C(F)(F)F)c1 (some centres unmarked)

Return:
1. 4
2. 4.1
3. 3.1
4. 10

Enquiry: What value of IC50 on human CCR2 (Homo sapiens) does O=C(CNC(=O)[C@H]1[C@@H]2CN([C@H]3CC[C@@H](c4ccsc4)CC3)C[C@@H]21)Nc1cccc(C(F)(F)F)c1 have?
Return: 3.7

====

target.under.test: human CCR2 (Homo sapiens, UniProt P41597)
Construct: expressed in transfected cells; host or cells: Ba/F3 cells (membrane preparation)
measurement.protocol: CCR2 Membrane Binding Assay (SPA radio-ligand binding, 125I-rhMCP-1)
measurement.setup: membranes from Ba/F3 cells transfected with human CCR2; 0.03 nM 125I-rhMCP-1; class symbols
parameter: IC50

// known answers, use as guide
O=C([C@H]1[C@@H]2CN([C@H]3CC[C@@H](c4ccccc4)CC3)C[C@@H]21)N1CCC(c2cccc(C(F)(F)F)c2)C1 (stereo partly drawn) [Compound 70]	< 0.05 µM
O=C(CNC(=O)[C@H]1[C@@H]2CN([C@H]3CC[C@H](Nc4ccc(F)c(F)c4)CC3)C[C@@H]21)Nc1cccc(C(F)(F)F)c1	0.201 to 0.7 µM

Please look at the following molecule next.
Enquiry: IC50 lookup needed for O=C(CNC(=O)[C@H]1[C@@H]2CN([C@H]3CC[C@@H](c4cnn(Cc5ccccc5)c4)CC3)C[C@@H]21)Nc1cccc(C(F)(F)F)c1 , thanks.
Return: < 0.05 µM
